Molecular target: Sodium channel protein type 4 subunit alpha (Homo sapiens, UniProt P35499)
Sequence (P35499 whole entry): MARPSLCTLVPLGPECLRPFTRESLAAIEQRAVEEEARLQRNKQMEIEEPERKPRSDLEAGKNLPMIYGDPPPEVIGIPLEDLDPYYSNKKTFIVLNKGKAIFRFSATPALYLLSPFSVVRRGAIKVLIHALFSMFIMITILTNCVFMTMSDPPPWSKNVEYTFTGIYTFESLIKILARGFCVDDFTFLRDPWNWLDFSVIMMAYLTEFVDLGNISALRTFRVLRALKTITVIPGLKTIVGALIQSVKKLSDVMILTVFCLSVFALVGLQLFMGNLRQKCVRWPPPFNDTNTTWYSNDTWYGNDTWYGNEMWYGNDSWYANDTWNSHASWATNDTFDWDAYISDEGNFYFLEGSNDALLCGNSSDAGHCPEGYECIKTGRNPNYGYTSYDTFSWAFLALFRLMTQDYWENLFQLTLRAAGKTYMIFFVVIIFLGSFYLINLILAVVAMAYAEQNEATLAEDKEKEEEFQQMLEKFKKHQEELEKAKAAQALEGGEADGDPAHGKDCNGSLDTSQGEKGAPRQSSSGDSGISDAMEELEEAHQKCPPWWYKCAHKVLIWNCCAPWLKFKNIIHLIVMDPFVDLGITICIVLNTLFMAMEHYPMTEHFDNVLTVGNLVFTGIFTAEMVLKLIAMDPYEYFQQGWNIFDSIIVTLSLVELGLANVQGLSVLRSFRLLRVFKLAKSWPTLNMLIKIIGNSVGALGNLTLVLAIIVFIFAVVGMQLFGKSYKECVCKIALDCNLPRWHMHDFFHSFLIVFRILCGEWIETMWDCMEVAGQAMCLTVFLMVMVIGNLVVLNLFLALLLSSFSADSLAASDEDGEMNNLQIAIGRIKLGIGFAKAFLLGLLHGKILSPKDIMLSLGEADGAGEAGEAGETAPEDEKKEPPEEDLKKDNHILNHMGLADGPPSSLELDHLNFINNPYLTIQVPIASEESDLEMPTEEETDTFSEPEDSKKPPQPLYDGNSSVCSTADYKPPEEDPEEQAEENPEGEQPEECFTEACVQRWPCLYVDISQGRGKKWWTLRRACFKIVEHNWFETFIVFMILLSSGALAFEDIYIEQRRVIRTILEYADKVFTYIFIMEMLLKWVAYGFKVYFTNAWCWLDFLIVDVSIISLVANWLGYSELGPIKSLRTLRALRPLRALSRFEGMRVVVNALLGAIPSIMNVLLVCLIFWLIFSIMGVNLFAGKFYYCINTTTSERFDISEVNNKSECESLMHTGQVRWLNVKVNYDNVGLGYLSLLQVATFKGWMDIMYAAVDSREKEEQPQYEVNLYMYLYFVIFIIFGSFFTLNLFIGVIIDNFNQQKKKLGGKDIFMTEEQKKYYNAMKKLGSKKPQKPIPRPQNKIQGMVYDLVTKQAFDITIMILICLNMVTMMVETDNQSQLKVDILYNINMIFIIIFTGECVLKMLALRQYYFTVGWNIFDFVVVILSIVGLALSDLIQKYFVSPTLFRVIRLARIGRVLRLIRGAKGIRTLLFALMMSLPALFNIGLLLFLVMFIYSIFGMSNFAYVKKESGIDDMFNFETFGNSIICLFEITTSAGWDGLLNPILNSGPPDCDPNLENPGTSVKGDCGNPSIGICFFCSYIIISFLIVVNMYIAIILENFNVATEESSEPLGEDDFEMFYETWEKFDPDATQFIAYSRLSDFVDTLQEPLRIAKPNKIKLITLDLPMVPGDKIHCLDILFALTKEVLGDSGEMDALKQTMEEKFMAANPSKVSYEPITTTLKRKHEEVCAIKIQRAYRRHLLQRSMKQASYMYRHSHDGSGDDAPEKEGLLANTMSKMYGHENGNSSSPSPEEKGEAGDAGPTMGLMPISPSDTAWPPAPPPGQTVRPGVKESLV
Assay: Inhibition of human Nav 1.4 expressed in HEK293T cells assessed as phasic block at 10 Hz by whole cell patch clamp assay
Type: cell-based
readout_kind: IC50 (µM)

Observe how each entry below is paired with its result.
>>> assay_result("Nc1nc2ccc(OC(F)(F)F)cc2s1 [RILUZOLE]")
51
>>> assay_result("FC(F)(F)Oc1ccc2nc(N3CCNCC3)sc2c1")
38
>>> assay_result("c1ccc(Oc2ccc3nc(N4CCNCC4)sc3c2)cc1")
63

a: Nc1nc2ccc(C(F)(F)F)cc2s1
b: CC(C)c1ccc2nc(N)sc2c1
Task for the reader: decide whether a or b has the larger IC50. Indicate your choice by writing its label.
b
(b: 89 µM, a: 53 µM)
